Just for reference, ChEMBL document CHEMBL5247631 is where these values come from.

Tested on: BGC-823
PROCEDURE SUMMARY: Anticancer activity against human BGC-823 cells assessed as inhibition of cell viability incubated for 72 hrs by MTT assay
Assay type: functional, cell-based
SETTINGS: BGC-823, 72 h
RESULT TYPE: IC50 (nM)
# output: bare number, implied unit nM

### Prompt Dear colleague, please send me the reported IC50 for Cc1coc2c1C(=O)C(=O)c1c-2ccc2c1CCCC2(C)C when you can.
### Response 2800

----------
Test system: A 172
PROCEDURE SUMMARY: Anticancer activity against human A-172 cells assessed as reduction in cell viability incubated for 72 hrs by MTT assay
Format: functional, cell-based
SETTINGS: A 172, 72 h
RESULT TYPE: pIC50
When answering, recall that pIC50 equals minus log10 of the concentration in mol/L, and write that number alone.

### Prompt Dear colleague, please send me the reported pIC50 for C[C@H]1[C@@H](O)O[C@@H]2O[C@@]3(C)CC[C@H]4[C@H](C)CC[C@@H]1[C@@]24OO3 [ARTENIMOL] when you can.
### Response 4.18

----------
System: DOHH-2
PROCEDURE SUMMARY: Anticancer activity against human DOHH-2 cells assessed as reduction in cell viability incubated for 24 hrs by CellTiter-Glo luminescent assay
Format: functional, cell-based
SETTINGS: DOHH-2, 24 h
RESULT TYPE: pIC50
When answering, recall that pIC50 equals minus log10 of the concentration in mol/L, and write that number alone.

### Prompt Dear colleague, please send me the reported pIC50 for CC(C)Oc1ccc(C(=O)Cn2ccnc2)cc1-n1c(CN2CCN(C(=O)COc3ccc(Cl)cc3)CC2)nc2ccccc2c1=O when you can.
### Response 7.85

----------
System: CNE
PROCEDURE SUMMARY: Anticancer activity against human CNE cells assessed as reduction in cell viability incubated for 72 hrs by MTT assay
Format: functional, cell-based
RESULT TYPE: pIC50
When answering, recall that pIC50 equals minus log10 of the concentration in mol/L, and write that number alone.

### Prompt Dear colleague, please send me the reported pIC50 for C[C@H]1[C@@H](O)O[C@@H]2O[C@@]3(C)CC[C@H]4[C@H](C)CC[C@@H]1[C@@]24OO3 [ARTENIMOL] when you can.
### Response 4.74
